System: Human σ1 receptor (Homo sapiens, UniProt Q99720) | Read-out: Ki | Origin: multiple publications
Sequence (Q99720 whole entry): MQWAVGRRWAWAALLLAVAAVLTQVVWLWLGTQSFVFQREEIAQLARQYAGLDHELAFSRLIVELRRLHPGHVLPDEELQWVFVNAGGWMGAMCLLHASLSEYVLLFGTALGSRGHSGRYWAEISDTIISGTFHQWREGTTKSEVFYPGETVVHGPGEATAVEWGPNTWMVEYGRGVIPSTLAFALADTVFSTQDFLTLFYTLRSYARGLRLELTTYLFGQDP

{"MOLECULE": "Cn1nc(-c2ccccn2)c(CN2CCCCC(NCCC(C)(C)C)C2)c1Cl (centres unmarked)", "MEASURED_TARGET": "Human σ1 receptor (Homo sapiens, UniProt Q99720)", "Ki": "< 0.1 µM"}
{"MOLECULE": "CC(C)CCNC1CCCCN(Cc2c(-c3cccc(O)n3)nn(C)c2Cl)C1 (centres unmarked)", "MEASURED_TARGET": "Human σ1 receptor (Homo sapiens, UniProt Q99720)", "Ki": "0.5 to 1 µM"}
{"MOLECULE": "C[C@H]1CN(Cc2ccccc2)C[C@@H]1NS(=O)(=O)c1ccc(N2CCOCC2)nc1", "MEASURED_TARGET": "Human σ1 receptor (Homo sapiens, UniProt Q99720)", "Ki": "< 0.1 µM"}
{"MOLECULE": "Cn1nc(-c2cccc(C(F)(F)F)n2)c(CC(=O)N2CCC3(CCN(CCC(C)(C)C)CC3)CC2)c1Cl", "MEASURED_TARGET": "Human σ1 receptor (Homo sapiens, UniProt Q99720)", "Ki": "0.1 to 0.5 µM"}
{"MOLECULE": "CCn1nc(-c2cc(C)on2)c(C(=O)Nc2ccc3c(c2)CCN(CCC(C)(C)C)C3)c1Cl", "MEASURED_TARGET": "Human σ1 receptor (Homo sapiens, UniProt Q99720)", "Ki": "< 0.1 µM"}
{"MOLECULE": "Cc1cc(-c2nn(C)c(Cl)c2C(=O)N2CCC3(CCN(CCC(C)(C)C)CC3)CC2)no1", "MEASURED_TARGET": "Human σ1 receptor (Homo sapiens, UniProt Q99720)", "Ki": "0.5 to 1 µM"}
{"MOLECULE": "Cc1cc(-c2nn(C)c(Cl)c2CN2CCCCC(NCCN3CCCCC3)C2)no1 (centres unmarked)", "MEASURED_TARGET": "Human σ1 receptor (Homo sapiens, UniProt Q99720)", "Ki": "> 1 µM"}
{"MOLECULE": "Cc1cc(-c2nn(C)c(Cl)c2CN2CCCC(C3(NCCC(C)C)CC3)C2)no1 (centres unmarked)", "MEASURED_TARGET": "Human σ1 receptor (Homo sapiens, UniProt Q99720)", "Ki": "< 0.1 µM"}
{"MOLECULE": "CCC(=O)N(C)c1ccc(S(=O)(=O)N2CCC3(CCN(CCC(C)(C)C)CC3)CC2)cn1", "MEASURED_TARGET": "Human σ1 receptor (Homo sapiens, UniProt Q99720)", "Ki": "0.1 to 0.5 µM"}
{"MOLECULE": "Cn1nc(-c2cc(C3CC3)on2)c(C(=O)N2CCC3(CCN(CCC(C)(C)C)CC3)CC2)c1Cl", "MEASURED_TARGET": "Human σ1 receptor (Homo sapiens, UniProt Q99720)", "Ki": "0.1 to 0.5 µM"}
{"MOLECULE": "N#Cc1ccc(CN2CC[C@@H](NS(=O)(=O)c3ccc(N4CCOCC4)nc3)C2)cc1", "MEASURED_TARGET": "Human σ1 receptor (Homo sapiens, UniProt Q99720)", "Ki": "< 0.1 µM"}
{"MOLECULE": "CN(Cc1ccccc1)C1CCN(S(=O)(=O)c2ccc(N3CCC4(CCCO4)CC3)nc2)CC1", "MEASURED_TARGET": "Human σ1 receptor (Homo sapiens, UniProt Q99720)", "Ki": "> 1 µM"}
{"MOLECULE": "CCCNCC1CCN(Cc2c(-c3cc(C)on3)nn(C)c2Cl)C1 (centres unmarked)", "MEASURED_TARGET": "Human σ1 receptor (Homo sapiens, UniProt Q99720)", "Ki": "> 1 µM"}
{"MOLECULE": "CN(Cc1ccc(F)cc1)[C@H]1CC[C@H](NS(=O)(=O)c2ccc(N3CCOCC3)cn2)CC1", "MEASURED_TARGET": "Human σ1 receptor (Homo sapiens, UniProt Q99720)", "Ki": "> 1 µM"}
{"MOLECULE": "CC(C)(C)CCN1CCCC2(CCN(S(=O)(=O)c3ccc(-c4ccncc4)nc3)CC2)C1", "MEASURED_TARGET": "Human σ1 receptor (Homo sapiens, UniProt Q99720)", "Ki": "< 0.1 µM"}
{"MOLECULE": "CCc1ncc(-c2cc(C)no2)c(C2CCN(CC(=O)N3CCCN(C)CC3)CC2)n1", "MEASURED_TARGET": "Human σ1 receptor (Homo sapiens, UniProt Q99720)", "Ki": "> 1 µM"}
{"MOLECULE": "CCn1nc(-c2cc(C)on2)c(CN2CCCCC(NCCC(C)(C)C)C2)c1Cl (centres unmarked)", "MEASURED_TARGET": "Human σ1 receptor (Homo sapiens, UniProt Q99720)", "Ki": "0.1 to 0.5 µM"}
